Target: recombinant human IDE (Homo sapiens)
Experiment: IDE fluorescence polarization-based degradation assays
Format: biochemical
Conditions: Ki Gluc., substrate glucagon; Ki from IC50 via Cheng-Prusoff
QUANTITY_KIND: Ki (µM)
Number in µM, nothing else.

The compound listed as Cc1ccc(S(=O)(=O)Nc2cccn(O)c2=S)s1 has a reported Ki of 6

The compound listed as O=C(Nc1cccn(O)c1=S)c1cccs1 has a reported Ki of 26

The compound listed as Cc1ccc(NS(=O)(=O)c2cccs2)c(=S)n1O has a reported Ki of 5

The compound listed as Cn1ccc(S(=O)(=O)Nc2cccn(O)c2=S)n1 has a reported Ki of 6

* * *

Biological target: recombinant human IDE (Homo sapiens, UniProt P14735)
Sequence (P14735 1-1019): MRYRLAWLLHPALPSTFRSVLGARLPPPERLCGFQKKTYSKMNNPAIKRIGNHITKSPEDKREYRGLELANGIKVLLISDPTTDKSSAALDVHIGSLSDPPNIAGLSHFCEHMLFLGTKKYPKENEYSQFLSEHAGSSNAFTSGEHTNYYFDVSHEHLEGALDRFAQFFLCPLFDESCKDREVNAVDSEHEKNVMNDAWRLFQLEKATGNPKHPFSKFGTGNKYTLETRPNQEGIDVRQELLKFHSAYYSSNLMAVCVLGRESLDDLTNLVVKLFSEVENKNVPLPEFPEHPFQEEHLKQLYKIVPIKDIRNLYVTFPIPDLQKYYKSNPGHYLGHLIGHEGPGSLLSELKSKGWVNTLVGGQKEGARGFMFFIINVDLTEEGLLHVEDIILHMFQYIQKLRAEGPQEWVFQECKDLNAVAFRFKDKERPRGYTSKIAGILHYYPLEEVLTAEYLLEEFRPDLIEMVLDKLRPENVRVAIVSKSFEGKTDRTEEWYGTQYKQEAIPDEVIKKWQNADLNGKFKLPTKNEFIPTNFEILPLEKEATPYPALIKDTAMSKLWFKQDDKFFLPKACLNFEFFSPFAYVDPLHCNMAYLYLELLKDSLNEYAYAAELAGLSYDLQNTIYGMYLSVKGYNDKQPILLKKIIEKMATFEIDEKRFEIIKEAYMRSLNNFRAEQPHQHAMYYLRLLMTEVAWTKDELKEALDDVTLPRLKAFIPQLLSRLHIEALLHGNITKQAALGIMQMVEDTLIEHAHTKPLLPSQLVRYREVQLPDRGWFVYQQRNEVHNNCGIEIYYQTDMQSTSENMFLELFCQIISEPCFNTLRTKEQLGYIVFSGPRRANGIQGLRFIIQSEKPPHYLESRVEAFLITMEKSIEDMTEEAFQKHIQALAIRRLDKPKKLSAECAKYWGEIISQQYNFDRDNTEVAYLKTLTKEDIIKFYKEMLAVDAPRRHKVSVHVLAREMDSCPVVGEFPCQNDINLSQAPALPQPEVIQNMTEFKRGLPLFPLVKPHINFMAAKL
Test: IDE fluorescence polarization-based degradation assays
Assay type: biochemical
Conditions: read-out: Ki values; screening of focused HOPTO sublibrary; substrate not stated
pKi: −log10 of the molar value.
QUANTITY_KIND: pKi

- COMPOUND: "NS(=O)(=O)c1cccn(O)c1=S [Compound 8, 3-sulfonamide-1,2-HOPTO]"
  TARGET: "recombinant human IDE (Homo sapiens, UniProt P14735)"
  VALUE_REPORTED: "~4.30"

Entry On1ccc2ccccc2c1=S : pKi on recombinant human IDE (Homo sapiens, UniProt P14735) = ~4.30
